# target: hBChE (Homo sapiens, UniProt P06276)
# Sequence (P06276 29-602): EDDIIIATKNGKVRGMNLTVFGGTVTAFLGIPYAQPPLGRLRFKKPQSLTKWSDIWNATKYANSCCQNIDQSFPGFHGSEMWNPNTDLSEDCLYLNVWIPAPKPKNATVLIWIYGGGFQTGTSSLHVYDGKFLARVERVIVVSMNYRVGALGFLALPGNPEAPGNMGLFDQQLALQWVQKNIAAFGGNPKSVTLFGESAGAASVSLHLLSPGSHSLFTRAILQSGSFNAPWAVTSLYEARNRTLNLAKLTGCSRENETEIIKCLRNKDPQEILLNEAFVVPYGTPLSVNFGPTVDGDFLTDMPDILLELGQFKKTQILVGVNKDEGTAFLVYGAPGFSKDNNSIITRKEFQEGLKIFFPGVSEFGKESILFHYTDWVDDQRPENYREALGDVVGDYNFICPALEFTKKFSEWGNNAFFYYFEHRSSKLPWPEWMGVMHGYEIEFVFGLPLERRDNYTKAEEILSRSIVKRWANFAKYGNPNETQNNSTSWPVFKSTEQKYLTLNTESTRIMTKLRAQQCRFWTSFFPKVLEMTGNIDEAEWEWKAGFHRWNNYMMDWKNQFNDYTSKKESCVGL
# procedure-text: ChE IC50 determination, method of Ellman, hBChE
# Assay type: biochemical
# particulars: residual activity at 100 μmol/L, after 5 min preincubation; read-out: hBChE RA±SD (residual activity)
# key: entry, value: remaining activity at 100 µM
Give the number; % is assumed, so skip it.

Answered examples (3):
CCC1(c2cnc[nH]2)Cc2ccccc2C1 [Compound 5, 4-(2-ethylindan-2-yl)-1H-imidazole, reference compound]
82
CCC1(c2nc[nH]n2)Cc2ccccc2C1
89
CCC1(c2cn(C(=S)N(C)C)cn2)Cc2ccccc2C1
49

Find the recorded remaining activity at 100 µM belonging to `CCC1(c2cn[nH]n2)Cc2ccccc2C1` and report it.
82

So what's the measured remaining activity at 100 µM for this one? `CCC1(c2cncn2C)Cc2ccccc2C1`
67

* * *

# procedure-text: Shake-flask partition coefficient / logD
# Assay type: physicochemical
# particulars: n-octanol/PBS buffer, pH 7.4
measured-property: logD

# get_value(readout='logD', item= CCN(CC)C(=O)n1cnc(C2(CC)Cc3ccccc3C2)c1 [Compound 8] )
3.33

* * *

# procedure-text: Thermodynamic solubility
# Assay type: physicochemical
# particulars: PBS, aqueous buffer, thermodynamic from solid
measured-property: solubility at 24 h (µg/mL)
Number only, in µg/mL; omit the unit.

I would be grateful if you could share the reported solubility at 24 h for `CCN(CC)C(=O)n1cnc(C2(CC)Cc3ccccc3C2)c1` .
100

* * *

For hBChE (Homo sapiens), measured pIC50 is reported for the entries below.
# pIC50: negative log10 of molar concentration; output just the value

Observe how each entry below is paired with its result.
CCC1(c2cn(C(=O)N(C)Cc3ccccc3)cn2)Cc2ccccc2C1 [Compound 10]
7.28
CCN(C)C(=O)n1cnc(C2(CC)Cc3ccccc3C2)c1 [Compound 7]
8.00

Entry CCN(CC)C(=O)n1cnc(C2(CC)Cc3ccccc3C2)c1 [Compound 8] , system hBChE (Homo sapiens): what pIC50 was measured?
5.82

Under hBChE (Homo sapiens): pIC50 value of CCC1(c2cnn(C(=O)N(C)C)n2)Cc2ccccc2C1 [Compound 15] ?
8.72

For hBChE (Homo sapiens), provide pIC50 of CCC1(c2cn(C(=O)N(C)C)cn2)Cc2ccccc2C1 [Compound 6] please.
7.85

* * *

# procedure-text: Shake-flask partition coefficient / logD
# Format: physicochemical
# particulars: n-octanol/PBS buffer, pH 4.44
measured-property: logD

Returns the measured logD for the input compound. Input: `CCN(CC)C(=O)n1cnc(C2(CC)Cc3ccccc3C2)c1`
3.05
